A collection of compounds and their measured Ki
# tested system: Sialidase (Clostridium perfringens, UniProt P10481)
# Sequence (P10481 whole entry): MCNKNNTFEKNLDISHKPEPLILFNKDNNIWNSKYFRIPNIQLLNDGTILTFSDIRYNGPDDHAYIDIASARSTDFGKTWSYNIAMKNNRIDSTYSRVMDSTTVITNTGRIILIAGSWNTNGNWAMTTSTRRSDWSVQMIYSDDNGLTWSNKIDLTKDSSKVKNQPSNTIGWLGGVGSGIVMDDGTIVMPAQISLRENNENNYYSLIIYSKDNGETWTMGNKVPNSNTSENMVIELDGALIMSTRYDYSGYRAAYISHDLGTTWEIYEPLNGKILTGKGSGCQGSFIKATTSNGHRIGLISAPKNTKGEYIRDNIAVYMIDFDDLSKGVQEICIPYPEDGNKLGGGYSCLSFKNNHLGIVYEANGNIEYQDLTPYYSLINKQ
# experiment summary: Competitive inhibition of Clostridium perfringens neuraminidase
Dear colleague, please return just the value in µM, with no unit written.

CC1(C)C=Cc2c(ccc3c2O[C@H]2c4ccc(O)cc4OC[C@@H]32)O1 [PHASEOLIN]
4.84

Please look up its Ki: CC(C)=CCc1cc2c(cc1O)OC[C@H]1c3ccc4c(c3O[C@@H]21)CC(O)C(C)(C)O4 (some centres not stated) [ERYSUBIN D] 15.2

----------
# tested system: Sialidase (Vibrio cholerae serotype O1 (strain ATCC 39315 / El Tor Inaba N16961))
# Sequence (P0C6E9 whole entry, one chain of several): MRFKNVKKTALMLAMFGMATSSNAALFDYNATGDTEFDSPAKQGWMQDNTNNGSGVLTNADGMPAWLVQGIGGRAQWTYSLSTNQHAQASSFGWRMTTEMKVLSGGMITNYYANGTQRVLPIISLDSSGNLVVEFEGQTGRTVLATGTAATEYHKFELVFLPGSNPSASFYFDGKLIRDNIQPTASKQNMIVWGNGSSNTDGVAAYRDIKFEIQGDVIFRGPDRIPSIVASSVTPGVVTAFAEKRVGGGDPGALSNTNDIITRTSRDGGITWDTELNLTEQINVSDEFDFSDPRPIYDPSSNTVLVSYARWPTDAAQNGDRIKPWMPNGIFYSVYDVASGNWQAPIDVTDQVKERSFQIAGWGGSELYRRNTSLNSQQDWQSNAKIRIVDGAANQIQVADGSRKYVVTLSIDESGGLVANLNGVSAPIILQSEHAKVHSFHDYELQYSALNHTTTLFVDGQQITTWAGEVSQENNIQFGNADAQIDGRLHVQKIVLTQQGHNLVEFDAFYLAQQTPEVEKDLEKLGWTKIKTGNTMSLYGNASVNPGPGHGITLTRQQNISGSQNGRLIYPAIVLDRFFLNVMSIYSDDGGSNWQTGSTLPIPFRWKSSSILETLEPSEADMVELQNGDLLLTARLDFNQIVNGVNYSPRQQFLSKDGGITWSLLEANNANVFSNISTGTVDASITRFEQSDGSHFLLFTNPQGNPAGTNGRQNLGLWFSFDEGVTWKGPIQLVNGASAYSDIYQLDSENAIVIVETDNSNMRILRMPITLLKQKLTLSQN
# experiment summary: Inhibition of Vibrio cholerae neuraminidase assessed as inhibition of 4-MU-NANA hydrolysis after 30 mins by spectrofluorimetry
observed property: pIC50
Please express pIC50 as -log10 of the molar concentration.

CC(C)=CCc1cc2c(cc1O)O[C@H]1c3ccc(O)cc3OC[C@@H]21 [SOPHORAPTEROCARPAN A]
4.94
CC(C)=CCc1c(O)ccc2c3c(oc12)-c1cc(C=O)c(O)cc1OC3 [ERYTHRIBYSSIN O]
6.46

Please look up its pIC50: CC1(C)C=Cc2cc3c(cc2O1)O[C@H]1c2ccc(O)cc2OC[C@@H]31 [ISONEORAUTENOL] 4.19

Please look up its pIC50: CC(C)=CCc1cc2c(cc1O)OC[C@H]1c3ccc4c(c3O[C@@H]21)CC(O)C(C)(C)O4 (stereo not given in full) [ERYSUBIN D] 4.58

Please look up its pIC50: CC1(C)C=Cc2c(ccc3c2O[C@H]2c4ccc(O)cc4OC[C@@H]32)O1 [PHASEOLIN] 4.50

Please look up its pIC50: CC1(C)C=Cc2cc3c(cc2O1)OC[C@H]1c2ccc(O)cc2O[C@@H]31 [NEORAUTENOL] 4.27

Please look up its pIC50: `Oc1ccc2c(c1)O[C@H]1c3ccc(O)cc3OC[C@@H]21` 4.53

Please look up its pIC50: COc1ccc2c3c(oc2c1CC=C(C)C)-c1ccc(O)cc1OC3 [ERYVARIN D] 5.48

Please look up its pIC50: COc1ccc2c(c1CC=C(C)C)O[C@H]1c3cc(CC=C(C)C)c(O)cc3OC[C@@]21O [ERYSTAGALLIN A] 4.56

Please look up its pIC50: CC(C)=CCc1cc2c(cc1O)OC[C@@]1(O)c3ccc4c(c3O[C@@H]21)C=CC(C)(C)O4 [ERYSUBIN E] 4.71

Please look up its pIC50: CC(C)=CCc1cc2c(cc1O)OC[C@H]1c3ccc(O)cc3O[C@@H]21 [CALOPOCARPIN] 5.12

Please look up its pIC50: CC(C)=CCc1c(O)ccc2c1O[C@H]1c3cc4c(cc3OC[C@@H]21)OC(C)(C)C(O)C4 (stereo not given in full) [ERYTHRIBYSSIN L] 4.57

Please look up its pIC50: CC1(C)Oc2ccc3c(c2CC1O)O[C@H]1c2ccc(O)cc2OC[C@@H]31 (stereo not given in full) [ERYTHRIBYSSIN D] 4.34

Please look up its pIC50: COc1ccc2c(c1CC=C(C)C)O[C@H]1c3ccc(O)cc3OC[C@@]21O [ERYTHRABYSSIN I] 4.66

Please look up its pIC50: CC1(C)Oc2ccc3c(c2CC1O)O[C@@H]1c2ccc(O)cc2OC[C@H]31 (stereo not given in full) [ERYTHRIBYSSIN M] 4.11
